Biological target: T1, recombinant human OX40L (extracellular domain, R&D Systems) (human, UniProt P23510 51-183)
T1 sequence: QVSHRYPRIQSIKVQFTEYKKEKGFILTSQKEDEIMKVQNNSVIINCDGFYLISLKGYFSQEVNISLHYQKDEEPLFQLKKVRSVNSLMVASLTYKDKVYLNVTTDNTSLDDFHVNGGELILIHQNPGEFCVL
Assay: cell-based or functional assay
measurement-kind: IC50, T cell assay with rec. hOX40L (nM)

Study these solved cases before continuing.
# binder, measurement-kind, reading
data = [
    ("OX40L024 (VHH, not shown: small tags and cut ends) VHH: EVQLVESGGGLVQPGGSLRLSCAASGRTFSSIYAKGWFRQAPGKEREFVAAISRSGRSTSYADSVKGRFTISRDNAKNTVYLQMNSLRPEDTAVYYCAAVGGATTVTASEWDYWGLGTLVTVSS", "IC50, T cell assay with rec. hOX40L", 1.54),
    ("OX40L026 (VHH, not shown: small tags and cut ends) VHH: EVQLVESGGGLVQPGGSLRLSCAASGRTFSSIYAKGWFRQAPGKEREFVAAISRSGRSTSYADSVKGRFTISRDNAKNTVYLQMNSLRPEDTAVYYCAAVGGATTVTASEWDYWGQGTLVTVSS", "IC50, T cell assay with rec. hOX40L", 2.46),
    ("OX40L01E07 (VHH, monovalent Nanobody from E. coli; not shown: C-terminal c-myc and His6 tag) VHH: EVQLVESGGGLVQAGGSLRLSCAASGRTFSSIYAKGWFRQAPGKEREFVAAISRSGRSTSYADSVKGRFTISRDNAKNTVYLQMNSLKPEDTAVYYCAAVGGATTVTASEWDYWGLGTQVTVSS", "IC50, T cell assay with rec. hOX40L", 1.48),
    ("OX40L025 (VHH, not shown: small tags and cut ends) VHH: EVQLVESGGGLVQPGGSLRLSCAASGRTFSSIYAKGWFRQAPGKEREFVAAISRSGRSTSYADSVKGRFTISRDNSKNTVYLQMNSLRPEDTAVYYCAAVGGATTVTASEWDYWGLGTLVTVSS", "IC50, T cell assay with rec. hOX40L", 1.15),
    ("OX40L027 (VHH, not shown: small tags and cut ends) VHH: EVQLVESGGGLVQPGGSLRLSCAASGRTFSSIYAKGWFRQAPGKEREFVAAISRSGRSTSYADSVKGRFTISRDNSKNTVYLQMNSLRPEDTAVYYCAAVGGATTVTASEWDYWGQGTLVTVSS", "IC50, T cell assay with rec. hOX40L", 1.43),
]

P. OX40L039 (VHH, not shown: small tags and cut ends) VHH: DVQLVESGGGLVQPGGSLRLSCAASGRTFSSIYAKGWFRQAPGKEREFVAAISRSGRSTSYADSVKGRFTISRDNSKNTVYLQMNSLRPEDTAVYYCAAVGGATTVTASEWDYWGQGTLVTVSS
Q. OX40L028 (VHH, not shown: small tags and cut ends) VHH: DVQLVESGGGLVQPGGSLRLSCAASGRTFSSIYAKGWFRQAPGKEREFVAAISRSGRSTSYADSVKGRFTISRDNAKNTVYLQMNSLRPEDTAVYYCAAVGGATTVTASEWDYWGLGTLVTVSS
-- ask Field: lower IC50, T cell assay with rec. hOX40L | Options: P / Q Select an item and report its label.
-- reply P
(P: 1.6 nM, Q: 2.3 nM)
